Reference for the values: patent US7186731B2

Molecular target: human plasma DPP-IV (Homo sapiens)
Sequence (P27487 39-766 limits assumed): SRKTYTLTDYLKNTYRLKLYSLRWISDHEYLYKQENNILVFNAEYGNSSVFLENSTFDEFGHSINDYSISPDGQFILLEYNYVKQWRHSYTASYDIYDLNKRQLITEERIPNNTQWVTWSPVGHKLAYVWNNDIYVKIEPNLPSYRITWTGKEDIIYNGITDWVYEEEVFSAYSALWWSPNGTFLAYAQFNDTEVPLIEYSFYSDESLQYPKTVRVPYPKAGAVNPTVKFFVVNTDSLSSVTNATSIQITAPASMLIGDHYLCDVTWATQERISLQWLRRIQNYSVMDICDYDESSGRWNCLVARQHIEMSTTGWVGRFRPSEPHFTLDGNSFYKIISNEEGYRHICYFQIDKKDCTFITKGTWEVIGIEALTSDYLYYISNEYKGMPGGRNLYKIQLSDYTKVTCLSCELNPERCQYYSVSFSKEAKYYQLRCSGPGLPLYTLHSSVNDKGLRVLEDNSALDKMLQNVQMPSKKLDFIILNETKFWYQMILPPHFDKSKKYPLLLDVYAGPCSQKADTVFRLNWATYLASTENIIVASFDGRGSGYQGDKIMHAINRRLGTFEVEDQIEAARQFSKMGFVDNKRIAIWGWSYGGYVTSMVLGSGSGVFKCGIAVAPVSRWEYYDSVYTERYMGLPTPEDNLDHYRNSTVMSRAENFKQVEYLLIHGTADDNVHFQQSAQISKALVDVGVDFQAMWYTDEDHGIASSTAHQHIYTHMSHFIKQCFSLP
Assay: Inhibition Test of Human Plasma DPP-IV
Settings: substrate H-glycine-proline-AMC, 20 minutes incubation at room temperature, fluorescence
Where a name gives a salt, the structure may show the parent alone.
readoutType: IC50 (nM)

a. CC1(NCC(=O)N2C[C@@H](F)C[C@H]2C#N)CCOCC1
b. N#C[C@@H]1CCCN1C(=O)[C@H]1N[C@H]2CC[C@@H]1[C@H](O)C2 [Example 2-8, hydrochloride]
c. N#C[C@@H]1C[C@H](F)CN1C(=O)[C@H]1N[C@@H]2C[C@H]1C[C@H]2O [Example 45-3, hydrochloride]
Place the items in sequence of falling IC50. List each label, following the requested order.
a, b, c

1. CC1(NCC(=O)N2C[C@@H](F)C[C@H]2C#N)CCN(c2cnccn2)CC1
2. N#C[C@@H]1CCCN1C(=O)[C@H]1N[C@@H]2C[C@H]1C[C@H]2O [Example 5-8, hydrochloride]
Identify the entry with the smaller IC50: 1 or 2 . Indicate your choice by writing its label.
2
(2: 8.7 nM, 1: 13 nM)
